- System: Mycobacterium tuberculosis
- Test Details: Cornell M. t heat shock assay; note: in the data most compounds retested in dose-response had high values
- Format: functional, organism-based
- Set-up: dose or concentration left out as unconfirmed
The whole screen tested about 69,000 compounds, of which about 950 (1.4%) showed an effect of 50% or more. Many of the other results were omitted from the sample, so strong results are more common in it than they were.

Compound	Percent Effect / %
Cc1oc(-c2nc(C#N)c(NC(C)(C)C)o2)cc1S(=O)(=O)N1CCCC1	1.248
O=C(O)C(F)(F)F.O=C(O)C(F)(F)F.O=c1ccc2c(n1Cc1cccnc1)CCN(Cc1ccoc1)CC2	-14.95
CC(C)CNC(=O)N1CC[C@@H]2CN(Cc3cccnc3)S(=O)(=O)[C@@H]2CC1.O=C(O)C(F)(F)F	36.35
COc1ccc(CN2CCN(c3ncc(Cl)cn3)CC2)cc1	-15.93
Cc1noc(C)c1CN1C[C@H]2CN(Cc3cccc(F)c3)C[C@H]2C1.O=C(O)C(F)(F)F.O=C(O)C(F)(F)F	1.076
CN(C)S(=O)(=O)c1ccc(-c2nc(C#N)c(NC(C)(C)C)o2)o1.Cl	74.72
Cc1ccc(CN2CC[C@H]3NC(=O)CC[C@@H]32)o1.O=C(O)C(F)(F)F	-7.125
CC(C)Nc1oc(-c2ccc(S(=O)(=O)N(C)C)o2)nc1C#N	-8.92
CCOc1cccc2c1OCC(=O)N(c1ccc3c(c1)OCO3)C2	-8.154
O=C(CN1CCc2sccc2C1)Nc1ccnc2ccnn12	101.6
CC(C)n1nccc1NC(=O)CN1CCc2sccc2C1	-0.741
Br.O=C(CN(C1=NCCCC1)c1ccccc1)c1ccccc1	-38.94
CNc1oc(-c2ccc(S(=O)(=O)N(C)C)o2)nc1C#N	-18.56
Br.Cc1ccc(C(=O)CN(C2=NCCCCC2)c2ccccc2)cc1	26.5
COC(=O)N1C[C@H]2CC[C@@H]1CN(Cc1cscn1)C2	1.905
CCc1ccc(CN2CCN(c3ccc(Cl)nn3)CC2)nc1	15.06
COc1cccc(CN2C[C@@H]3COC[C@]3(COCc3ccncc3)C2)c1.O=C(O)C(F)(F)F.O=C(O)C(F)(F)F	-3.091
COc1ccc(C(CNS(=O)(=O)c2cn(C)nc2C)N2CCCC2)cc1.Cl (centres undefined)	-8.275
Br.Cc1ccc(N(CC(=O)c2ccc(Br)cc2)C2=NCCCCC2)cc1	103.6
Cc1ccc([C@]2(O)CC[C@H]3CN(Cc4cccc(F)c4F)C[C@H]32)nc1.O=C(O)CC(O)(CC(=O)O)C(=O)O	2.948
Cc1oc(-c2nc(C#N)c(NC3CC3)o2)cc1S(=O)(=O)N1CCCC1	-1.847
CNc1oc(-c2ccc(OC)c(S(=O)(=O)N(C)C)c2)nc1C#N	4.952
CC(=O)N1C[C@@H]2CC[C@H](C1)N(S(=O)(=O)c1ccc(F)cc1Cl)C2	10.85
Cn1cc(C(=O)N2CC[C@@H]3[C@@H]2CCN3Cc2cccnc2)cn1.O=C(O)C(F)(F)F.O=C(O)C(F)(F)F	-1.797
Cn1nccc1NC(=O)CN1CCc2sccc2C1	-34.76
CCc1ccc(CN2CCN(c3ncc(Cl)cn3)CC2)nc1	68.7
Br.Cc1cccc(N(CC(=O)c2ccccc2)C2=NCCCCC2)c1	15.52
Cl.Cl.Cn1cc(C(=O)NCc2cncc3c2CCNC3)cn1	-18.1
CC(C)Cc1cc(CN2C[C@H]3CC[C@@H]2CN(Cc2cscn2)C3)n[nH]1	107.7

Where these numbers come from: ChEMBL document CHEMBL3988442
